# log10(Ki) measurements, system: rat 5-HT7a receptor (Rattus norvegicus)
# Sequence (P32305 whole entry): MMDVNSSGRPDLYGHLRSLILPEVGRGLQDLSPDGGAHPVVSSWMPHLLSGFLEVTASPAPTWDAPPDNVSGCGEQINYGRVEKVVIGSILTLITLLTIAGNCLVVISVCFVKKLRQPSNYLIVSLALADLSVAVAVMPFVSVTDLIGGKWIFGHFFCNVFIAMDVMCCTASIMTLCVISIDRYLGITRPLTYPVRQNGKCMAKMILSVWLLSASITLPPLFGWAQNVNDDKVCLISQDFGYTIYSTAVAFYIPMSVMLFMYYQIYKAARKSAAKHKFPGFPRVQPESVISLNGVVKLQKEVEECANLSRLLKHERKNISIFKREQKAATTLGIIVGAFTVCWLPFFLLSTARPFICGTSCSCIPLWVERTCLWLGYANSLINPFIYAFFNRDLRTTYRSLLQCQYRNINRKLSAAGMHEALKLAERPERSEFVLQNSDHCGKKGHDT
Plainly stated, the numbers are log10 of Ki given in nM.

The following compounds have reported results that may help.
{"Smiles structure": "c1csc(-c2c3c(nn2C2CCCC2)CCNCC3)c1", "Study target": "rat 5-HT7a receptor (Rattus norvegicus)", "log10(Ki)": 1.18}
{"Smiles structure": "Oc1ccc(Cn2nc(-c3ccc(Cl)cc3)c3c2CCNCC3)cc1F", "Study target": "rat 5-HT7a receptor (Rattus norvegicus)", "log10(Ki)": 0.85}
{"Smiles structure": "N#Cc1ccc(-c2c3c(nn2C2CCC2)CCNCC3)cc1", "Study target": "rat 5-HT7a receptor (Rattus norvegicus)", "log10(Ki)": 3.52}

Problem: What log10(Ki) appears in the records for this compound with rat 5-HT7a receptor (Rattus norvegicus)? CC(C)(C)n1nc2c(c1-c1ccc(F)cc1)CCNCC2
Result: 1.85

Problem: Please do the same for CC(C)Cn1nc2c(c1-c1ccc(Cl)cc1)CCNCC2 as well.
Result: 2.08

====

log10(Ki) values for the molecules below.
- Study target: human recombinant 5-HT2C receptor (Homo sapiens, UniProt P28335)
- Sequence (P28335 33-458): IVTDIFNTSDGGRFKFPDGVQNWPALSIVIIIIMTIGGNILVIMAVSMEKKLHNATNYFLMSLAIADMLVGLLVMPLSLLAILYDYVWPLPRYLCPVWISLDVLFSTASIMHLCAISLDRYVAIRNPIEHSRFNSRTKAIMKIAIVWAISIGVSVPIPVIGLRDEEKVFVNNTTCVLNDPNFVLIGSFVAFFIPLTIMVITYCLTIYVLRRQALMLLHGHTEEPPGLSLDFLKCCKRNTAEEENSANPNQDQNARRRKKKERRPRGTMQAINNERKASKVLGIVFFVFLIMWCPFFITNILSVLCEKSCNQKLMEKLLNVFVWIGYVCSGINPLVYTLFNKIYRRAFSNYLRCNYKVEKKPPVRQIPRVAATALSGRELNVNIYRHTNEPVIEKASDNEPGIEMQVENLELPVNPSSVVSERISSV
- Protocol summary: 5-HT2C receptor radioligand binding ([3H]mesulergine, CHO membranes)
Give log10 of Ki, with Ki taken in nM.

Known log10(Ki) results, listed for orientation:
{"Molecule": "CCc1ccc(-c2c3c(nn2CC)CCNCC3)cc1", "Data value": 2.04}
{"Molecule": "CC(C)(C)n1nc2c(c1-c1ccc(F)cc1)CCNCC2", "Data value": 1.23}
{"Molecule": "CC1Cc2c(nn(C3CCCC3)c2-c2ccc(F)cc2)CCN1 (stereo not shown)", "Data value": 2.11}

Problem: Fill in the blank: the reported log10(Ki) of CC1Cc2nn(C(C)C)c(-c3ccccc3)c2CCN1 (stereo not shown) is ____.
Result: 3.48

Problem: Moving on to c1ccc(-c2c3c(nn2C2CCCCC2)CCNCC3)cc1
Result: 2.04

Problem: Same thing, different molecule: FC(F)(F)c1ccc(-c2c3c(nn2C2CCC2)CCNCC3)cc1
Result: 1.65

Problem: Would you kindly repeat that for Cc1ccc(-c2c3c(nn2C2CC2)CCNCC3)cc1 ?
Result: 1.78

Problem: Ok, now CCC(CC)n1nc2c(c1-c1cccc(F)c1)CCNCC2
Result: 1.85

Problem: Queued: c1cc(-c2c3c(nn2C2CCCC2)CCNCC3)cs1
Result: 1.18

Problem: Next record, please: COc1ccc(-c2c3c(nn2C2CCCC2)CCNCC3)cc1
Result: 0.83

====

- Study target: 5-HT2A receptor (UniProt P28223)
- Protocol summary: 5-HT2A receptor radioligand binding ([3H]ketanserin);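 further: competitive displacement binding on membranes, either from rat cerebral cortex or from NIH3T3 cells stably expressing human 5-HT2A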
- Cond: read-out: Ki 5-HT2A, table does not say whether rat cortex or human recombinant (NIH3T3) receptor
Quantity kind: log10 Ki (log10 of the value in nM)
Please keep in mind that the values are log10 of Ki expressed in nM.

{"Compound": "CCc1ccc(-c2c3c(nn2C(C)C)CCNCC3)cc1", "Quantity kind": "log10 Ki", "Data value": 0.30}
{"Compound": "Clc1ccc(-c2nn(Cc3ccncc3)c3c2CCNCC3)cc1", "Quantity kind": "log10 Ki", "Data value": 1.78}
{"Compound": "CCn1nc2c(c1-c1ccc(Cl)cc1)CCNCC2", "Quantity kind": "log10 Ki", "Data value": 1.26}

The record that follows has no log10 Ki shown yet.
Problem: log10 Ki of Cc1ccc(-c2c3c(nn2C2CCCC2)CCNCC3)cc1 on 5-HT2A receptor (UniProt P28223)?
Result: 0.00

====

Catalogue of pKi values
- Study target: human recombinant 5-HT2B receptor (Homo sapiens, UniProt P41595)
- Sequence (P41595 whole entry): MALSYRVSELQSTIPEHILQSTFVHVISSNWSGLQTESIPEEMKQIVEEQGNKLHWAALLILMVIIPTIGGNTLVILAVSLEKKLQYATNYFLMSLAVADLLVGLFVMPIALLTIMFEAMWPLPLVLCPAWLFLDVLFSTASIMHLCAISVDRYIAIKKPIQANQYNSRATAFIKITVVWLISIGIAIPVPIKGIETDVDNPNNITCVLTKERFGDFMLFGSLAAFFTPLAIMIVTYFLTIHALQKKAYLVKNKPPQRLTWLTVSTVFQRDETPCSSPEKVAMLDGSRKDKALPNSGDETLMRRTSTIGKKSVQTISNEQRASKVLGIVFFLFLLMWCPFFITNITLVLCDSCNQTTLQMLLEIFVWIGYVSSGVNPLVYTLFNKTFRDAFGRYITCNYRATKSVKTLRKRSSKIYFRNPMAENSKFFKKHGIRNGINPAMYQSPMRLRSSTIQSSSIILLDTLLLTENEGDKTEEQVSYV
- Protocol summary: 5-HT2B receptor radioligand binding ([3H]mesulergine, CHO membranes);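 further: competitive displacement binding on membranes of CHO cells stably expressing the receptor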
Keep in mind that pKi stands for -log10 of concentration in molar terms.

Problem: Param item = Fc1ccc(-c2nn(Cc3ccccc3)c3c2CCNCC3)cc1 [Example 47] ; retrieve measured pKi.
Result: 7.19

Problem: Param item: FC(F)(F)c1ccc(-c2c3c(nn2C2CCC2)CCNCC3)cc1 [Example 279]
Result: 9.00

====

- Study target: human recombinant 5-HT2B receptor (Homo sapiens)
- Protocol summary: 5-HT2B receptor radioligand binding ([3H]mesulergine, CHO membranes)
Quantity kind: pKi
Please express pKi as -log10 of the molar concentration.

Problem: Item: Cc1ccc(-c2c3c(nn2C2CC2)CCNCC3)cc1 Test system: human recombinant 5-HT2B receptor (Homo sapiens) Read-out: pKi Value: ?
Result: 8.70

Problem: Then Clc1ccc(-c2c3c(nn2C2CCC2)CCNCC3)cc1 ?
Result: 9.30

Problem: Ok, now c1ccc(Cn2nc3c(c2-c2ccccc2)CCNCC3)cc1
Result: 8.46

Problem: Now try N#Cc1ccc(-c2c3c(nn2C2CCC2)CCNCC3)cc1 .
Result: 8.22

Problem: Subsequent entry: CC(C)n1nc2c(c1-c1ccc(F)cc1)CCNCC2
Result: 7.66

Problem: Try this compound too: CC(C)n1nc2c(c1-c1ccc(Cl)cc1)CCNCC2
Result: 9.30

Problem: What do you get for Clc1ccc(-c2nn(Cc3ccccc3)c3c2CCNCC3)cc1 ?
Result: 6.80

Problem: Also need Cc1cccc(Cn2nc(-c3ccc(Cl)cc3)c3c2CCNCC3)c1 , thanks.
Result: 7.03

Problem: For Fc1ccc(-c2c3c(nn2C2CCCC2)CCNCC3)cc1F then?
Result: 8.35

Problem: Record: CCC(C)n1nc2c(c1-c1ccc(C(F)(F)F)cc1)CCNCC2 (centres unmarked)
Result: 8.52

Problem: Queued: CCC(CC)Cn1nc(-c2ccc(Cl)cc2)c2c1CCNCC2
Result: 7.05

Problem: Input CC1Cc2nn(C3CCCC3)c(-c3ccc(F)cc3)c2CCN1 (centres unmarked)
Result: 8.52

Problem: And the next one, CCN1CCc2c(-c3ccc(Cl)cc3)nn(Cc3ccccc3)c2CC1 ?
Result: 6.25

Problem: How about this compound: CC1CN(Cc2ccccc2)CCc2c1nn(C(C)C)c2-c1ccc(F)cc1 (centres unmarked)
Result: 7.22

====

- Study target: human recombinant 5-HT2C receptor (Homo sapiens, UniProt P28335)
- Protocol summary: 5-HT2C receptor radioligand binding ([3H]mesulergine, CHO membranes);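 further: competitive displacement of the tritiated ligand, using membranes from CHO cells stably transfected with the human receptor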
Ki strictly under 50 nM means YES; at 50 nM or over means NO.

Problem: State whether 50 nM exceeds Ki recorded for COc1ccc(CN2CCc3[nH]nc(-c4ccc(Cl)cc4)c3CC2)cc1OC .
Result: NO

Problem: Another molecule: CCC(CC)n1nc2c(c1-c1ccccc1)CCNCC2
Result: YES

Problem: Check CC1Cc2nn(C3CCCC3)c(-c3ccc(F)cc3)c2CCN1 (stereo not shown) too.
Result: NO

Problem: # iterate: c1cc(-c2c3c(nn2C2CC2)CCNCC3)cs1
Result: NO

Problem: Please do the same for Clc1ccc(-c2c3c(nn2C2CCC2)CCNCC3)cc1 as well.
Result: YES

Problem: Another molecule to check: Fc1ccc(-c2c3c(nn2C2CCC2)CCNCC3)cc1
Result: YES

Problem: Let us now turn to Cc1ccc(-c2c3c(nn2C(C)C)CC(C)NCC3)cc1 (stereo not shown)
Result: NO

Problem: Same lookup for CCC(C)n1nc2c(c1-c1ccc(C(F)(F)F)cc1)CCNCC2 (stereo not shown) , please.
Result: NO

Problem: Another: c1cc(-c2c3c(nn2C2CCCC2)CCNCC3)co1
Result: NO

====

- Study target: human recombinant 5-HT2C receptor (Homo sapiens)
- Protocol summary: 5-HT2C receptor radioligand binding ([3H]mesulergine, CHO membranes)
Quantity kind: log10 of Ki (log10 of the value in nM)
Would you kindly interpret these values as log10 of Ki expressed in nM?

Recorded log10 of Ki, per entry:
{"Compound": "N#Cc1ccc(-c2c3c(nn2C2CCC2)CCNCC3)cc1", "Data value": 2.08}
{"Compound": "N#Cc1ccc(-c2c3c(nn2C2CC2)CCNCC3)cc1", "Data value": 3.70}
{"Compound": "c1ccc(Cn2nc3c(c2-c2ccccc2)CCNCC3)cc1", "Data value": 1.00}
{"Compound": "Fc1cccc(Cn2nc(-c3ccc(Cl)cc3)c3c2CCNCC3)c1", "Data value": 2.84}
{"Compound": "FC(F)(F)c1ccc(-c2c3c(nn2C2CCCC2)CCNCC3)cc1", "Data value": 1.18}
{"Compound": "c1ccc(Cn2nc(-c3cccs3)c3c2CCNCC3)cc1", "Data value": 2.56}
{"Compound": "CCN1CCc2c(-c3ccc(Cl)cc3)nn(Cc3ccccc3)c2CC1", "Data value": 2.77}
{"Compound": "CCc1ccc(-c2c3c(nn2C(C)C)CCNCC3)cc1", "Data value": 1.30}
{"Compound": "Clc1ccc(-c2c3c(nn2C2CCCC2)CCNCC3)cc1", "Data value": 1.04}
{"Compound": "CCC(C)n1nc2c(c1-c1ccc(C)cc1)CCNCC2 (centres unmarked)", "Data value": 1.08}

Problem: Notebook entry, human recombinant 5-HT2C receptor (Homo sapiens) assay: log10 of Ki of CCC(C)n1nc2c(c1-c1ccc(F)cc1)CCNCC2 (centres unmarked) = ?
Result: 1.41

Problem: Next up: CC(C)n1nc2c(c1-c1ccc(F)cc1)CCNCC2
Result: 1.71

Problem: Now this one: CCC(CC)n1nc2c(c1-c1ccc(F)c(C)c1)CCNCC2
Result: 2.18

Problem: And Fc1ccc(-c2c3c(nn2C2CCCC2)CCNCC3)cc1F ?
Result: 1.51

Problem: Param item: CC1Cc2nn(C(C)C)c(-c3ccc(F)cc3)c2CCN1 (centres unmarked)
Result: 3.00

Problem: Let us now turn to CC1CNCCc2c1nn(C(C)C)c2-c1ccc(F)cc1 (centres unmarked)
Result: 1.59

Problem: And what about the compound CN1CCc2c(-c3ccc(Cl)cc3)nn(Cc3ccccc3)c2CC1 ?
Result: 2.26

Problem: Moving on to the next compound: c1csc(-c2c3c(nn2C2CCCC2)CCNCC3)c1
Result: 1.20

Problem: Can you check CCC(CC)n1nc2c(c1-c1ccc(F)cc1)CCNCC2 next?
Result: 1.18

Problem: Continue with Fc1cc(-c2c3c(nn2C2CCCC2)CCNCC3)ccc1Cl
Result: 1.58

Sourced from patent US20110040088A1
